Data credit: PubChem BioAssay (NCI)

Test system: CCRF-CEM leukemia
protocolDescription: NCI-60 one-dose screen, 48 h
assaySetup: 10 µM
About 83,000 compounds went through this panel and 20% of them were active in at least one assay; those are over-represented in the sample as a whole. Calls of active or inactive are those of the source. How the source made its calls: active means growth percent below 10; inactive means the rest.
Possible outcomes: active, inactive

{"columns": ["molecule", "className"],
 "data": [
  ["O=C(CCl)Oc1ccc(OC(=O)CCl)cc1", "inactive"],
  ["COC(=O)c1cc2oc(/C=C3/SC(=S)N(N)C3=O)cc2n1Cc1ccccc1", "active"],
  ["CN(C)CCCOc1cccc(NC2=C(Cl)C(=O)C(Nc3cccc(OCCCN(C)C)c3)=C(Cl)C2=O)c1", "active"],
  ["Cc1ccc(NCCN(C)CC(C)O)c2c(=O)c3ccccc3sc12 (stereo unspecified)", "inactive"],
  ["Cc1ccc(C(=O)/C=C/c2ccccc2)s1", "inactive"],
  ["CCOC(=O)C1=CSC2=NC3=C(CCC/C3=C\\c3ccc(Cl)cc3)C(c3ccc(Cl)cc3)N12 (stereo unspecified)", "inactive"]
]}

----------
System: OVCAR-5 ovarian
protocolDescription: NCI-60 one-dose screen, 48 h (100 = growth as untreated, 0 = no growth, -100 = all killed)
assaySetup: 10 µM
The panel holds about 83,000 compounds, 20% with a hit somewhere; the sample as a whole holds those more often.
growth vs 60%: less than gives 1; not less than gives -1.

{"columns": ["compound", "className"],
 "data": [
  ["COc1cc2cc(Oc3ccc(NC(=O)Nc4cccc(C(F)(F)F)c4)cc3)c(C)nc2cc1OC", 1],
  ["COc1cc(/C=C/c2cc(/C=C/c3ccc(O)c(OC)c3)nc(N)n2)ccc1O", 1],
  ["COc1cccc(CNc2cccc3cn[nH]c23)c1O", -1],
  ["O=[N+]([O-])c1ccc(/C(=C/c2ccccc2)[n+]2ccccc2)cc1", -1],
  ["Cc1ccc(S(=O)(=O)N(C)CCCCCC(=O)O)cc1", -1],
  ["COc1ccc(C(c2ccc(OCCN(C)C)cc2)c2cc3ccccc3c3ccccc23)cc1 (centres undefined)", -1],
  ["COc1ccc(-c2onc(N)c2-c2cc(OC)c3c(c2)OCO3)cc1", 1],
  ["CC[C@@H](C(=O)[C@H](C)[C@H](O)[C@@H](C)[C@H]1O[C@H]([C@@H](CC)C(=O)N(CC)CC)CC[C@H]1C)C1O[C@]2(C=C[C@@H](O)[C@]3(CC[C@@](C)([C@H]4CC[C@](O)(CC)[C@H](C)O4)O3)O2)[C@H](C)C[C@@H]1C (some centres undefined)", 1],
  ["O=S(=O)(Oc1ccc(-c2ccc3sccc3c2)cc1)c1ccccc1", -1],
  ["CCOC(=O)c1sc2ncnc(Nc3ccc(NC(=O)Nc4ccc(Cl)cc4)cc3)c2c1C", -1],
  ["CC(C)c1ccc(C(C)C(=O)N(CC2=C(C(C)c3ccccn3)c3ccccc3C2)C(C)C)cc1 (centres undefined)", -1],
  ["CCCCC/C=C/C/C=C/CCCCCCCC1=NC(C)(C)CN1C(C)C", -1],
  ["NS(=O)(=O)Oc1ccc2c(ccn2C(=O)C23CC4CC(CC(C4)C2)C3)c1", -1],
  ["CN1C(C(=O)Nc2ccccn2)=C(O)c2sc(Cl)cc2S1(=O)=O", -1],
  ["CC(=O)Nc1cc2c(cc1Cl)Cc1cc(Cl)ccc1-2", -1],
  ["Nc1ccccc1NC(=O)c1ccc(CCCC(=O)Nc2ccc(C3CC3N)cc2)cc1 (centres undefined)", 1],
  ["CN1CCN(C2=Nc3ccccc3Oc3ccc(Cl)cc32)CC1", -1],
  ["CO[C@H]1CC(O[C@@H]2/C(C)=C/C[C@@H]3C[C@@H](C[C@]4(C=C[C@H](C)[C@@H](C5CCCCC5)O4)O3)OC(=O)[C@@H]3C=C(C)[C@@H](O)[C@H]4OC/C(=C\\C=C\\[C@@H]2C)[C@]43O)O[C@@H](C)C1O[C@H]1C[C@H](OC)[C@@H](O)[C@H](C)O1 (some centres undefined)", 1],
  ["COc1cc(-c2nn(-c3cccc(NC(=O)NCCNC(=O)c4cccc(C(F)(F)F)c4)c3)cc2-c2ccncc2)ccc1Cl", -1]
]}
